List of IC50 values.
# assay_target: IDH1-R132H recombinant protein (Homo sapiens (Human), UniProt O75874, R132H)
# Sequence (O75874 whole entry R132H): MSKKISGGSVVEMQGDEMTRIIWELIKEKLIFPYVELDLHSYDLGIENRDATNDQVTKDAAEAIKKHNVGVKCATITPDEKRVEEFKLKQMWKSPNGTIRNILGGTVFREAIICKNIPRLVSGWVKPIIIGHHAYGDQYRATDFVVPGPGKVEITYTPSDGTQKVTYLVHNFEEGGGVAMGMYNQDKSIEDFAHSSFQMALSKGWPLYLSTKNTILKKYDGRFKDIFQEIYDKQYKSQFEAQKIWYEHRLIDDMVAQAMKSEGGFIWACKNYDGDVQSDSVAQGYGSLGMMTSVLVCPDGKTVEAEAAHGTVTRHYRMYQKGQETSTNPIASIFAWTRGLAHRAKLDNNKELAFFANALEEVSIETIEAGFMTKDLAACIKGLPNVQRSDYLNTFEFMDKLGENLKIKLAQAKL
# assay_notes: IDH1-R132H enzymatic assay (NADPH consumption, diaphorase/resazurin readout)
# test_settings: inhibition of NADPH consumption, 30 nM IDH1-R132H; read-out: Enzyme IDH1 R132H IC50
measured_quantity: IC50

[[record]]
compound = "Cn1c(=O)oc2ccc(NCc3cc4cc(Cl)ccc4[nH]c3=O)cc21 [Compound I-2]"
measured_quantity = "IC50"
experimental_result = "100 to 1000 nM"

[[record]]
compound = "Cc1ccc2cc(NCc3cc4cc(C)c(C)cc4[nH]c3=O)ccc2n1 [Compound I-37]"
measured_quantity = "IC50"
experimental_result = "> 10000 nM"

[[record]]
compound = "O=c1[nH]c2ccc(Cl)cc2cc1CNc1ccc2[nH]ncc2c1 [Compound I-38]"
measured_quantity = "IC50"
experimental_result = "> 10000 nM"

[[record]]
compound = "C[C@H](Nc1ncc2c(n1)N(C)C(=O)C2)c1cc2cc(Cl)ccc2[nH]c1=O [Compound I-61]"
measured_quantity = "IC50"
experimental_result = "100 to 1000 nM"

[[record]]
compound = "C[C@H](Nc1ncc2c(n1)N(C)C(=O)OC2)c1cc2cc(Cl)c(OCc3ccccn3)cc2[nH]c1=O [Compound I-48]"
measured_quantity = "IC50"
experimental_result = "< 100 nM"

[[record]]
compound = "C[C@H](Nc1ncc2cn[nH]c2n1)c1cc2cc(Cl)ccc2[nH]c1=O [Compound I-45]"
measured_quantity = "IC50"
experimental_result = "100 to 1000 nM"

[[record]]
compound = "Cc1ccc2cc(NCc3cc4cc(Cl)ccc4[nH]c3=O)ccc2n1 [Compound I-32]"
measured_quantity = "IC50"
experimental_result = "> 10000 nM"

[[record]]
compound = "COc1ccc2[nH]c(=O)c(CNc3ccc4nc(C)ccc4c3)cc2c1 [Compound I-35]"
measured_quantity = "IC50"
experimental_result = "> 10000 nM"

[[record]]
compound = "O=c1[nH]c2ccc(Cl)cc2cc1CNc1cccc2ocnc12 [Compound I-1]"
measured_quantity = "IC50"
experimental_result = "100 to 1000 nM"


Origin of measurements: patent US9624175B2
